Tested on: cocklebur
Assay: Test B pre/postemergence cocklebur
Assay type: in vivo, Xanthium strumarium
Settings: Preemergence, Rate 500 g/ha; scale of 0 to 10 where 0 is no effect and 10 is complete control
Record form. Attribute: Cocklebur plant response rating. Fill in for each entry.
Answers are plain numbers.

Previously resolved entries follow.
Smiles text: COCCOCn1c(=O)on(C(=O)N(c2ccc(F)cc2F)C(C)C)c1=O
Quantitative readout: 2
--
Smiles text: CC(C)N(C(=O)n1oc(=O)n(CCC2OCCCO2)c1=O)c1ccc(F)cc1F
Quantitative readout: 9

Could I get Cocklebur plant response rating for every one of these entries?
1. CC(C)N(C(=O)n1oc(=O)n(CCC(F)(F)F)c1=O)c1ccc(Cl)cc1
2. CC(C)N(C(=O)n1oc(=O)n(CC2=CCCN(C)C2)c1=O)c1ccccc1
3. CC(C)N(C(=O)n1oc(=O)n(C2CCCCCC2)c1=O)c1ccc(F)cc1
4. CCCCn1c(=O)on(C(=O)N(c2ccc(Cl)cc2)C(C)C)c1=O
5. CC(C)N(C(=O)n1oc(=O)n(CC2=CCCCC2)c1=O)c1ccccc1

[0, 0, 0, 3, 0]

Query: Cocklebur plant response rating; subject: COCn1c(=O)on(C(=O)N(c2ccccc2)C(C)C)c1=O 2
